System: L1210 leukemia ip in BDF1 mice, survival T/C
ASSAY_COMMENT: NCI In Vivo Anticancer Drug Screen. Data for tumor model L1210 Leukemia (intraperitoneal) in B6D2F1 (BDF1) mice
EXPERIMENTAL_CONTEXT: endpoint: mean survival time; dose: 100.0 mg/kg/injection; schedule: Q04DX003 (ip); vehicle: saline with Tween-80; higher = longer survival
Inconclusive results and toxic doses are left out.
Below: a set of entries, each annotated with reported T/C.
PROPERTY_MEASURED: T/C

> print(dat)
                                    compound  property.measured   observed.result
 1                   CCOC(=O)C(=O)c1ccc[nH]1                T/C   94 % of control
 2  CCOC(=O)CCC(C(=O)OCC)N(CC(=O)OCC)C(=O)c1ccccc1 (stereo unspecified)                T/C  102 % of control
 3                          CNC(=O)Nc1ccncc1                T/C   96 % of control
 4  CC(C)(C)C(=O)CC(=O)C(C)(C)C.CC(C)(C)C(=O)CC(=O)C(C)(C)C.CC(C)(C)C(=O)CC(=O)C(C)(C)C.[Ho]                T/C   94 % of control
 5                   [Si]c1ccc(-c2ccccc2)cc1                T/C   87 % of control
 6  c1cc2c3c(c1)/C(=N\N=C1/CCN4CCCc5cccc1c54)CCN3CCC2                T/C   92 % of control
 7  O=C(Nc1ccc([N+](=O)[O-])cc1)c1ccc([N+](=O)[O-])cc1                T/C   94 % of control
 8  NC(=NC1CCC(C2CCC(N)CC2)CC1)C(N)=NC1CCC(C2CCC(N)CC2)CC1 (stereo unspecified)                T/C  100 % of control
 9                      N#Cc1ccc[n+]([O-])c1                T/C  100 % of control
10  CC(C)CC(C)OC(C[N+](=O)[O-])C(Cl)(Cl)Cl (stereo unspecified)                T/C  106 % of control
11                C(=NCCN=Cc1ccccc1)c1ccccc1                T/C  101 % of control
12                           C=CCOc1ccccc1OC                T/C  103 % of control
13    CN(C)C(=O)Nc1cccc(OC(=O)NC2CCCCCCC2)c1                T/C   91 % of control
14           Nc1ccc(SCc2nc3cccc4c3n2CCC4)cc1                T/C   96 % of control
15  COC1OC2COc3ccccc3OC2C(N=Cc2ccccc2)C1O (stereo unspecified)                T/C  102 % of control
16  Cn1nc(NC(=O)C(F)(F)F)c2ncc(-c3ccc(Cl)cc3)nc21                T/C  100 % of control
17  CC=NC(C[S-])C(=O)O.CC=NC(C[S-])C(=O)O.[Fe+2] (stereo unspecified)                T/C   94 % of control
18  O=C1c2ccccc2C(=O)N1CNCCCNCN1C(=O)c2ccccc2C1=O                T/C   93 % of control
19                              O=C1C=CCCCC1                T/C  103 % of control
20     CC(C)N(C(=O)COc1ccc(Cl)cc1Cl)c1ccccc1                T/C   96 % of control
21                            Nc1ccnc(Cl)c1N                T/C  101 % of control

---

System: L1210 leukemia ip in BDF1 mice, survival T/C
ASSAY_COMMENT: NCI In Vivo Anticancer Drug Screen. Data for tumor model L1210 Leukemia (intraperitoneal) in B6D2F1 (BDF1) mice
EXPERIMENTAL_CONTEXT: endpoint: mean survival time; dose: 12.5 mg/kg/injection; schedule: Q01DX009 (ip); vehicle: Klucel (hydroxypropylcellulose) (HPC); higher = longer survival
Inconclusive results and toxic doses are left out.
PROPERTY_MEASURED: T/C

> print(dat)
                                   molecule   observed.result
1             CCCCOc1ccc(C=Nc2ccc(C)cc2)cc1  110 % of control
2                   CS(=O)(=O)OCOS(C)(=O)=O  104 % of control
3  CCCCN(CCCC)CCNc1ccc(Cl)c2oc3cc(C)ccc3c(=O)c12   95 % of control
4  CC(Cc1ccccc1)NC(=O)NCCCl (stereo not given)  101 % of control
5                  CC(C)(C#N)c1ccnc2ccccc12   89 % of control

---

Measured T/C of individual entries
Tested on: L1210 leukemia ip in BDF1 mice, survival T/C
ASSAY_COMMENT: NCI In Vivo Anticancer Drug Screen. Data for tumor model L1210 Leukemia (intraperitoneal) in B6D2F1 (BDF1) mice
EXPERIMENTAL_CONTEXT: endpoint: mean survival time; dose: 200.0 mg/kg/injection; schedule: Q01DX009 (ip); vehicle: Klucel (hydroxypropylcellulose) (HPC); higher = longer survival
Toxic doses and inconclusive results are not listed.
PROPERTY_MEASURED: T/C

> print(dat)
                                    compound                              assay.system   observed.result
 1  O=C(Nc1cccc(C(F)(F)F)c1)C(Br)C(Br)c1ccccc1 (stereo not drawn)  L1210 leukemia ip in BDF1 mice, survival T/C  100 % of control
 2            COc1ccc2c(c1)C=Cc1ccc(Cl)cc1N2  L1210 leukemia ip in BDF1 mice, survival T/C   94 % of control
 3  O=[N+]([O-])c1ccc(NC(=S)Nc2cccc(C(F)(F)F)c2)cc1  L1210 leukemia ip in BDF1 mice, survival T/C   91 % of control
 4                       Cc1cnc2cc(Cl)ccc2n1  L1210 leukemia ip in BDF1 mice, survival T/C  107 % of control
 5             COc1ccc(OC(=O)Nc2ccccc2OC)cc1  L1210 leukemia ip in BDF1 mice, survival T/C  100 % of control
 6                  CCOC(=O)C(=O)Nc1ncn[nH]1  L1210 leukemia ip in BDF1 mice, survival T/C  104 % of control
 7                    CCCn1c2ccccc2c2ccccc21  L1210 leukemia ip in BDF1 mice, survival T/C   97 % of control
 8            Cc1ccnc(NC(=O)Nc2cc(C)ccc2C)c1  L1210 leukemia ip in BDF1 mice, survival T/C   91 % of control
 9       O=C1OCCN1/N=C/c1ccc([N+](=O)[O-])o1  L1210 leukemia ip in BDF1 mice, survival T/C  110 % of control
10  CNC(=O)ON=C1CCC(CC2CCCCC2)CC1 (stereo not drawn)  L1210 leukemia ip in BDF1 mice, survival T/C   96 % of control
11  O=c1[nH]c2sccc2c(=O)n1OS(=O)(=O)c1ccccc1  L1210 leukemia ip in BDF1 mice, survival T/C  122 % of control
12          CC(C)=NOS(=O)(=O)c1c(C)cc(C)cc1C  L1210 leukemia ip in BDF1 mice, survival T/C   97 % of control
13                    CCOC(=O)Nc1cc(Cl)ccc1C  L1210 leukemia ip in BDF1 mice, survival T/C  102 % of control

---

System: L1210 leukemia ip in BDF1 mice, survival T/C
ASSAY_COMMENT: NCI In Vivo Anticancer Drug Screen. Data for tumor model L1210 Leukemia (intraperitoneal) in B6D2F1 (BDF1) mice
EXPERIMENTAL_CONTEXT: endpoint: mean survival time; dose: 200.0 mg/kg/injection; schedule: Q01DX001 (ip); vehicle: Klucel (hydroxypropylcellulose) (HPC); higher = longer survival
Procedure: The antitumor activity of compounds was measured in mice bearing transplantable tumors. Survival or tumor size were measured and the results are expressed as the measurement made in the treated group (T) divided by the measurement made in the vehicle treated control group (C). The tumor model used in this assay is L1210 Leukemia (intraperitoneal) in B6D2F1 (BDF1) mice
Toxic doses and inconclusive results are not listed.
PROPERTY_MEASURED: T/C

> print(dat)
                                   compound   observed.result
1                 CC(=O)N1C(=O)c2ccccc2C1=O   92 % of control
2                CC(C)(C)N(O)C(=O)NC1CCCCC1   91 % of control
3              N#Cc1nc(CSc2ccc(Cl)cc2)cnc1N   92 % of control
4  OC1COC(OCc2ccccc2)C(O)C1O (centres undefined)   96 % of control
5  COc1ccccc1N=Nc1c(O)n(-c2ccccc2C)c(=S)n(-c2ccccc2)c1=O   95 % of control
6     CN(C)C1=NS(=O)(=O)N=C(N(C)c2ccccc2)O1  101 % of control
7                        Nc1nnnn1C(=O)NCCCl   97 % of control
8  Cc1ccc(-n2c(O)c(N=Nc3ccc(Cl)cc3)c(=O)n(-c3ccc(Cl)cc3)c2=S)cc1   95 % of control
9  Nc1nc2c(nnn2C2CC(O)C(COP(=O)(O)O)O2)c(=O)[nH]1 (centres undefined)   91 % of control
